system: HL-60; assay: Cytotoxicity against human HL60 cells; format: functional
MEASURED PARAMETER: CC50 (µM)
Write down the numeric answer in µM and omit the unit.

CN(C)CCOc1ccc(C(=O)N2C/C(=C\c3ccccc3)C(=O)/C(=C/c3ccccc3)C2)cc1.Cl
1
CC[N+](C)(CC)CCOc1ccc(C(=O)N2C/C(=C\c3ccccc3)C(=O)/C(=C/c3ccccc3)C2)cc1.[I-]
82
Cl.O=C1/C(=C/c2ccc([N+](=O)[O-])cc2)CN(C(=O)c2ccc(OCCN3CCCCC3)cc2)C/C1=C\c1ccc([N+](=O)[O-])cc1
0.29
CC[N+](C)(CC)CCOc1ccc(C(=O)N2C/C(=C\c3ccc(Cl)cc3)C(=O)/C(=C/c3ccc(Cl)cc3)C2)cc1.[I-]
64
Cl.O=C1/C(=C/c2ccccc2)CN(C(=O)c2ccc(OCCN3CCOCC3)cc2)C/C1=C\c1ccccc1
1.2

Note to self: CC50 of `Cc1ccc(/C=C2\CN(C(=O)c3ccc(OCCN4CCCCC4)cc3)C/C(=C\c3ccc(C)cc3)C2=O)cc1.Cl` with HL-60 was 2.3

Note to self: CC50 of `Cl.O=C1/C(=C/c2ccc([N+](=O)[O-])cc2)CN(C(=O)c2ccc(OCCN3CCOCC3)cc2)C/C1=C\c1ccc([N+](=O)[O-])cc1` with HL-60 was 0.35

Note to self: CC50 of `CN(C)CCOc1ccc(C(=O)N2C/C(=C\c3ccc([N+](=O)[O-])cc3)C(=O)/C(=C/c3ccc([N+](=O)[O-])cc3)C2)cc1.Cl` with HL-60 was 0.31

Note to self: CC50 of `CCN(CC)CCOc1ccc(C(=O)N2C/C(=C\c3ccccc3)C(=O)/C(=C/c3ccccc3)C2)cc1.Cl` with HL-60 was 0.61
